system: liver cancer cell line SMMC7721; test: MTT cancer cell cytotoxicity assay, SMMC7721; assay type: cell-based, human; conditions: Homo sapiens, SMMC-7721, SMMC7721 cells, 48-72 h
Counter-ions that a name gives are not always drawn.
VALUE KIND: pIC50
By convention, pIC50 is the negative base-10 log of a molar concentration.

Q. Quote liver cancer cell line SMMC7721 pIC50 for entry COc1ccc(-c2ccc3nnc(-c4ccccc4OC(F)(F)F)n3c2)cc1 .
A. 6.98

Q. Quote liver cancer cell line SMMC7721 pIC50 for entry COc1ccccc1-c1nnc2ccc(-c3ccc(C(F)(F)F)cc3)cn12 .
A. 5.65

Q. Quote liver cancer cell line SMMC7721 pIC50 for entry COc1ccccc1-c1nnc2ccc(-c3ccc(C)c(Cl)c3)cn12 .
A. 7.17

Q. Quote liver cancer cell line SMMC7721 pIC50 for entry COc1cc(Cl)ccc1-c1nnc2ccc(-c3ccc(C)c(N)c3)cn12 .
A. 8.64

Q. Quote liver cancer cell line SMMC7721 pIC50 for entry COc1ccc(-c2ccc3nnc(-c4ccccc4OC)n3c2)cc1C .
A. 7.96

Q. Quote liver cancer cell line SMMC7721 pIC50 for entry COc1ccccc1-c1nnc2ccc(-c3ccc(C)c(N)c3)cn12 .
A. 7.70

Q. Quote liver cancer cell line SMMC7721 pIC50 for entry COc1ccccc1-c1nnc2ccc(-c3ccc(C)cc3F)cn12 .
A. 7.10

Q. Quote liver cancer cell line SMMC7721 pIC50 for entry COc1cc(-c2ccc3nnc(-c4ccccc4OC)n3c2)ccc1C .
A. 6.75

Q. Quote liver cancer cell line SMMC7721 pIC50 for entry COc1ccc(-c2ccc3nnc(-c4ccccc4N(C)C)n3c2)cc1 .
A. 7.46

Q. Quote liver cancer cell line SMMC7721 pIC50 for entry CNc1ccc(-c2ccc3nnc(-c4ccc(Cl)cc4OC)n3c2)cc1 .
A. 8.74

Q. Quote liver cancer cell line SMMC7721 pIC50 for entry COc1ccc(-c2ccc3nnc(-c4ccccc4OC)n3c2)cn1 .
A. 5.96

Q. Quote liver cancer cell line SMMC7721 pIC50 for entry COc1ccc(-c2ccc3nnc(-c4c(OC)cccc4OC)n3c2)cc1 .
A. 6.59

Q. Quote liver cancer cell line SMMC7721 pIC50 for entry COc1ccc(-c2ccc3nnc(-c4ccc(C)cc4OC)n3c2)cc1N .
A. 8.74

Q. Quote liver cancer cell line SMMC7721 pIC50 for entry COc1ccc(-c2ccc3nnc(-c4cccc(OC)c4)n3c2)cc1 .
A. 6.02

Q. Quote liver cancer cell line SMMC7721 pIC50 for entry COc1ccc(-c2ccc3nnc(-c4ccc(N)cc4OC)n3c2)cc1 [Example 87, hydrochloride] .
A. 6.76

Q. Quote liver cancer cell line SMMC7721 pIC50 for entry COc1ccc(-c2ccc3nnc(-c4ccc(OC)c(OC)c4OC)n3c2)cc1 .
A. 5.38

* * *

system: liver cancer cell line SMMC7721; test: MTT cancer cell cytotoxicity assay, SMMC7721; assay type: cell-based, human; details: Homo sapiens, SMMC-7721, SMMC7721 cells, 48-72 h
Output met for records whose IC50 is lower than 70 nM, not met for records at or above 70 nM.

Q. Here's an entry: COc1ccc(-c2ccc3nnc(-c4ccc(Cl)cc4OC)n3c2)cc1N [Example 50] . Is its IC50 below 70 nM?
A. met

Q. Here's an entry: COc1ccc(-c2ccc3nnc(-c4cccc(OC)c4OC)n3c2)cc1 [Example 73] . Is its IC50 below 70 nM?
A. not met

Q. Here's an entry: COc1ccccc1-c1nnc2ccc(-c3ccc(OC(C)C)cc3)cn12 [Example 6] . Is its IC50 below 70 nM?
A. not met

Q. Here's an entry: COc1ccccc1-c1nnc2ccc(-c3ccc(C)c([N+](=O)[O-])c3)cn12 [Example 10] . Is its IC50 below 70 nM?
A. not met

Q. Here's an entry: COc1ccccc1-c1nnc2ccc(-c3ccc(O)c(C)c3)cn12 [Example 41] . Is its IC50 below 70 nM?
A. not met

Q. Here's an entry: COc1ccc(-c2ccc3nnc(-c4ccc(Cl)cc4OC)n3c2)cc1 [Example 57] . Is its IC50 below 70 nM?
A. met

Q. Here's an entry: COc1ccc([N+](=O)[O-])cc1-c1nnc2ccc(-c3ccc(OC)c([N+](=O)[O-])c3)cn12 [Example 42] . Is its IC50 below 70 nM?
A. not met

* * *

Give measured pIC50 for each item. Keep answers brief.
system: breast cancer cell line T47D; assay: MTT cancer cell cytotoxicity assay, T47D; format: cell-based, human; settings: Homo sapiens, T47D cells, 48-72 h
Counter-ions that a name gives are not always drawn.
By convention, pIC50 is the negative base-10 log of a molar concentration.

Q. Read the entry COc1ccccc1-c1nnc2ccc(-c3ccc(N)cc3)cn12 [Example 47, hydrochloride] and write its reported pIC50.
A. 6.72

Q. Read the entry COc1ccccc1-c1nnc2ccc(-c3ccc(OCc4ccccc4)c(C)c3)cn12 and write its reported pIC50.
A. 5.03

Q. Read the entry COc1cc(C)ccc1-c1nnc2ccc(-c3ccc(C)c(N)c3)cn12 and write its reported pIC50.
A. 7.51

Q. Read the entry CNc1ccc(-c2ccc3nnc(-c4ccc(Cl)cc4OC)n3c2)cc1 and write its reported pIC50.
A. 8.44

Q. Read the entry COc1ccc(-c2ccc3nnc(-c4ccc(C)cc4OC)n3c2)cc1N and write its reported pIC50.
A. 8.70

Q. Read the entry CCOc1ccccc1-c1nnc2ccc(-c3ccc(OC)cc3)cn12 and write its reported pIC50.
A. 6.82

Q. Read the entry COc1ccc(-c2ccc3nnc(-c4ccccc4OC)n3c2)cc1O and write its reported pIC50.
A. 7.74

Q. Read the entry COc1ccc(-c2ccc3nnc(-c4cc(OC)c(OC)cc4OC)n3c2)cc1 and write its reported pIC50.
A. 6.08

* * *

test system: breast cancer cell line T47D; test: MTT cancer cell cytotoxicity assay, T47D; assay type: cell-based, human; conditions: Homo sapiens, T47D cells, 48-72 h
Structures can show the parent of a compound that is named as a salt.
Output t for records whose IC50 is lower than 700 nM, f for records at or above 700 nM.

Q. Here's an entry: COc1ccc(-c2ccc3nnc(-c4ccccc4OC)n3c2)cc1F . Is its IC50 below 700 nM?
A. t

Q. Here's an entry: COc1ccc(-c2ccc3nnc(-c4ccccc4OC)n3c2)c(OC)c1 . Is its IC50 below 700 nM?
A. t

Q. Here's an entry: COc1ccc(-c2ccc3nnc(-c4c(OC)cccc4OC)n3c2)cc1 . Is its IC50 below 700 nM?
A. f

Q. Here's an entry: COc1ccc(-c2ccc3nnc(-c4ccccc4OC)n3c2)cc1N [Example 46, hydrochloride] . Is its IC50 below 700 nM?
A. t

Q. Here's an entry: COc1ccccc1-c1nnc2ccc(-c3cccc(N)c3)cn12 [Example 45, hydrochloride] . Is its IC50 below 700 nM?
A. t

* * *

tested on: liver cancer cell line SMMC7721; assay: MTT cancer cell cytotoxicity assay, SMMC7721; type: cell-based, human; settings: Homo sapiens, SMMC-7721, SMMC7721 cells, 48-72 h
Give measured pIC50 for each item. Keep answers brief.
By convention, pIC50 is the negative base-10 log of a molar concentration.

Q. Quote liver cancer cell line SMMC7721 pIC50 for entry CCc1ccc(-c2ccc3nnc(-c4ccccc4OC)n3c2)cc1 .
A. 7.23

Q. Quote liver cancer cell line SMMC7721 pIC50 for entry COc1ccc(-c2cc(C)c3nnc(-c4ccccc4OC)n3c2)cc1 .
A. 7.24

Q. Quote liver cancer cell line SMMC7721 pIC50 for entry COc1ccc(-c2ccc3nnc(-c4ccc(F)cc4OC)n3c2)cc1 .
A. 7.77

Q. Quote liver cancer cell line SMMC7721 pIC50 for entry COc1ccc(-c2ccc3nnc(-c4ccccc4OC)n3c2)c(C)c1 .
A. 7.62

Q. Quote liver cancer cell line SMMC7721 pIC50 for entry CCOc1ccc(-c2ccc3nnc(-c4ccccc4OC)n3c2)cc1 .
A. 7.57

* * *

tested on: mouse melanoma cell line B16F10; test: MTT cancer cell cytotoxicity assay, B16F10; assay type: cell-based; details: Mus musculus, B16-F10, B16F10 cells, 48-72 h
Counter-ions that a name gives are not always drawn.
Classes by IC50: band A = under 5 nM, band B = from 5 nM up to 20 nM, band C = 20 nM and over

Q. Kindly identify the class of COc1ccc(-c2ccc3nnc(-c4ccc(C)cc4OC)n3c2)cc1O .
A. band A

Q. Kindly identify the class of COc1ccc(-c2ccc3nnc(-c4ccccc4OC)n3c2)cc1F .
A. band B

Q. Kindly identify the class of CCc1ccc(-c2ccc3nnc(-c4ccccc4OC)n3c2)cc1 .
A. band C

Q. Kindly identify the class of COc1ccc(-c2ccc3nnc(-c4ccc(Cl)cc4OC)n3c2)cc1 .
A. band A

Q. Kindly identify the class of COc1ccccc1-c1nnc2ccc(-c3ccc([N+](=O)[O-])cc3)cn12 .
A. band C

Q. Kindly identify the class of COc1ccc(-c2ccc3nnc(-c4ccc(Cl)cc4OC)n3c2)cc1O .
A. band A

Q. Kindly identify the class of COc1ccc(-c2ccc3nnc(-c4ccc(C(F)(F)F)cc4OC)n3c2)cc1 .
A. band C

Q. Kindly identify the class of COc1ccccc1-c1ccc2nnc(-c3ccccc3OC)n2c1 .
A. band C

Q. Kindly identify the class of COc1ccc(-c2ccc3nnc(-c4ccc(C)cc4OC)n3c2)cc1 .
A. band A

Q. Kindly identify the class of COc1ccc(-c2ccc3nnc(-c4ccccc4OC)n3c2)cc1O .
A. band B

Q. Kindly identify the class of COc1ccccc1-c1nnc2ccc(-c3ccc(OC)c([N+](=O)[O-])c3)cn12 .
A. band C

Q. Kindly identify the class of COc1cc(C)ccc1-c1nnc2ccc(-c3ccc(C)c(N)c3)cn12 .
A. band C

Q. Kindly identify the class of CNc1ccc(-c2ccc3nnc(-c4ccc(C)cc4OC)n3c2)cc1 .
A. band B

Q. Kindly identify the class of COc1ccccc1-c1nnc2ccc(-c3ccc(C(F)(F)F)cc3)cn12 .
A. band C

Q. Kindly identify the class of COc1ccc(-c2ccc3nnc(-c4ccccc4OC)n3c2)cc1C .
A. band C

Q. Kindly identify the class of COc1ccc(-c2ccc3nnc(-c4ccc(C)cc4OC)n3c2)cc1F .
A. band B

Q. Kindly identify the class of CCCCCCOc1ccc(-c2ccc3nnc(-c4ccccc4OC)n3c2)cc1 .
A. band C

Q. Kindly identify the class of COc1ccc(-c2ccc3nnc(-c4ccc([N+](=O)[O-])cc4OC)n3c2)cc1 .
A. band A

Q. Kindly identify the class of COc1ccccc1-c1nnc2ccc(-c3ccccc3)cn12 .
A. band C

Q. Kindly identify the class of COc1ccc(-c2ccc3nnc(-c4ccccc4OC)n3c2)cc1 .
A. band C

Q. Kindly identify the class of COc1ccc(-c2ccc3nnc(-c4ccc(Br)cc4OC)n3c2)cc1 .
A. band B

Q. Kindly identify the class of COc1ccc(-c2ccc3nnc(-c4ccc(Cl)cc4OC)n3c2)cc1N .
A. band A

Q. Kindly identify the class of COc1ccc(-c2ccc3nnc(-c4ccc(C)cc4OC)n3c2)cc1N .
A. band A

Q. Kindly identify the class of COc1ccccc1-c1nnc2ccc(-c3ccc(OC(C)C)cc3)cn12 .
A. band C

Q. Kindly identify the class of CCOc1ccc(-c2ccc3nnc(-c4ccccc4OC)n3c2)cc1 .
A. band C

Q. Kindly identify the class of COc1ccc(-c2ccc3nnc(-c4ccccc4OC)n3c2)cc1Cl .
A. band C

Q. Kindly identify the class of COc1ccc(-c2ccc3nnc(-c4ccccc4OC)n3c2)cc1N [Example 46, hydrochloride] .
A. band A

Q. Kindly identify the class of COc1cc(Cl)ccc1-c1nnc2ccc(-c3ccc(C)c(N)c3)cn12 .
A. band A

Q. Kindly identify the class of COc1cccc(-c2ccc3nnc(-c4ccccc4OC)n3c2)c1 .
A. band C
